- study.target: aldose reductase (Rattus norvegicus)
- Construct: Lenses were removed from 20 eyeballs of rats and homogenized in 4 ml of 5 mM mercaptethanol; from tissue; host or cells: rat lens, 10,000 rpm supernatant of homogenate
- assay.name: Aldose reductase-inhibiting activity (absorbance change at 340 nm, homogenate of rat lenses as enzyme source, glyceroaldehyde substrate, NADPH coenzyme)
- Type: biochemical
- condition: rat lens homogenate, 10 mM D,L-glyceroaldehyde, 0.4M Li2SO4, initial one minute, mass concentration
property.name: pIC50
The meaning of pIC50 here: minus log10 of the concentration in molar units.

# lookup: O=C(O)CCC1(O)OC2=CC(=O)c3c(O)cc(O)cc3C2=C1c1ccc(O)cc1 (stereo not shown) on aldose reductase (Rattus norvegicus), pIC50 = 8.08

The origin of these recorded values is patent US5284870A.
